assay: In vivo pharmacokinetic study in rat (i.v. and p.o.); conditions: blood, iv; rat SD male non-fasted, cassette, i.v. 0.25 mg/kg, N=3; read-out: Vss
Assay endpoint: Vd (L/kg)
Your answer should be a plain number; it is taken to be in L/kg.

Exercise: Look up Vd for this molecule: CO/N=c1/nc[nH]c2c1ccn2[C@@H]1O[C@H]([C@H](O)c2ccc(Cl)cc2)[C@@H](O)[C@H]1O [compound 36]
Solution: 1.1

* * *

Consider the following compounds; for each one, report its solubility at 4 h.
assay: physchem; settings: 25 °C, fassif, thermodynamic from solid
Your answer should be a plain number; it is taken to be in µg/mL.

Exercise: Look up solubility at 4 h for this compound: `CO/N=c1/nc[nH]c2c1ccn2[C@@H]1O[C@H]([C@H](O)c2ccc(Cl)cc2)[C@@H](O)[C@H]1O`
Solution: 912

Exercise: Look up solubility at 4 h for this compound: CO/N=c1\[nH]cnc2c1ncn2[C@@H]1O[C@H]([C@](C)(O)c2ccc(Cl)c(Cl)c2)[C@@H](O)[C@H]1O [Example 92A]
Solution: 54.7

* * *

Target: PRMT5/MEP50 complex (Homo sapiens (Human), UniProt O14744)
Sequence (O14744 whole entry): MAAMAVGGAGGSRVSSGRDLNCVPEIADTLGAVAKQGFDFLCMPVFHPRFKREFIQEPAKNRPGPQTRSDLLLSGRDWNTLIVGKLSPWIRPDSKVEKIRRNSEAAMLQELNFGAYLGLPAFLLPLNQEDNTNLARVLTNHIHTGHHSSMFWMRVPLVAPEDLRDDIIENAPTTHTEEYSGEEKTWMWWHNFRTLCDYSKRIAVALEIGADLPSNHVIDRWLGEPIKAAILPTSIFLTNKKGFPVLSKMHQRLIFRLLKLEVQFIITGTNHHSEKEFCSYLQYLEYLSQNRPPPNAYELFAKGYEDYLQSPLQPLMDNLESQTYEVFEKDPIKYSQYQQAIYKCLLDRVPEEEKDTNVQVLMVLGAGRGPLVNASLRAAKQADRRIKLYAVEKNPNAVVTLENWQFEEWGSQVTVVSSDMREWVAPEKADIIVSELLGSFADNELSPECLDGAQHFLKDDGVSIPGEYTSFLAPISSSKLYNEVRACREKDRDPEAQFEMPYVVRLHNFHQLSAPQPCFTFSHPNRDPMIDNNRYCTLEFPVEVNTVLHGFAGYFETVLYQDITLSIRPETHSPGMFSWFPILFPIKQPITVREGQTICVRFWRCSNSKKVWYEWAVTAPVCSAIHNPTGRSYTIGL
Sequence (Q9BQA1 whole entry partner): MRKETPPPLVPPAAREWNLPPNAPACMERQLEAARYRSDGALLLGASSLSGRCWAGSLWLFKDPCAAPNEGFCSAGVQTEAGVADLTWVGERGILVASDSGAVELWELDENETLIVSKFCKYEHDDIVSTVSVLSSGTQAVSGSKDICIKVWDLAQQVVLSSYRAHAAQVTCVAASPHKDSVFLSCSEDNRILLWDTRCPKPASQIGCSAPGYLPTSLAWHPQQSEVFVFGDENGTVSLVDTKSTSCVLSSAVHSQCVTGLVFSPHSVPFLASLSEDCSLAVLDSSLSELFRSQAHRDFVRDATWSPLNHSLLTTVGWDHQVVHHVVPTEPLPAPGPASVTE
Assay: Biochemical assay: PRMT5/MEP50 methylation of histone H2A with 3H-SAM, filter plate scintillation
Details: biochemical potency; read-out: PRTMT5/MEP50 IC50
Description: Biochemical Assay Protocol Compounds were solubilized, and 3-fold diluted in 100% DMSO. […] Standard reactions were performed in a total volume of […] assay buffer, with histone H2A (5 μM final) as substrate. […] Each reaction was spotted onto filter plate (MultiScreen FB Filter Plate, Millipore), and washed 5 times with PBS buffer, Scintillation fluid was added to the filter plate and read in a scintillation counter. […]
Counter-ions that a name gives are not always drawn.
Assay endpoint: IC50 (nM)
Your answer should be a plain number; it is taken to be in nM.

Exercise: Look up IC50 for this molecule: `Cc1cc([C@@](C)(O)[C@H]2O[C@@H](n3cnc4c(N)ncnc43)[C@H](O)[C@@H]2O)ccc1Cl`
Solution: 13.5

Exercise: Look up IC50 for this molecule: CO/N=c1/nc[nH]c2c1ccn2[C@@H]1C[C@H]([C@H](O)c2ccc(Cl)cc2)[C@@H](O)[C@H]1O [Example 49-B, hydrochloride]
Solution: 543

Exercise: Look up IC50 for this molecule: `CN/N=c1\nc[nH]c2c1ccn2[C@@H]1C[C@H](CCc2ccc3ccc(NCC4CC4)nc3c2)[C@@H](O)[C@H]1O`
Solution: 3.2

Exercise: Look up IC50 for this molecule: `CO/N=c1\nc[nH]c2c1ccn2[C@@H]1C[C@H]([C@H](O)c2ccc(Cl)c(Cl)c2)[C@@H](O)[C@H]1O`
Solution: 19.9

Exercise: Look up IC50 for this molecule: `O/N=c1\nc[nH]c2c1ccn2[C@@H]1C[C@H](CCc2ccc3ccc(NCC4CC4)nc3c2)[C@@H](O)[C@H]1O`
Solution: 0.33

Exercise: Look up IC50 for this molecule: `CN(N)c1ncnc2c1ccn2[C@@H]1C[C@H](CCc2ccc3ccc(NCC4CC4)nc3c2)[C@@H](O)[C@H]1O`
Solution: 8.2

* * *

assay: In vivo pharmacokinetic study in rat (i.v. and p.o.); settings: blood, iv; rat SD male non-fasted, i.v. 1 mg/kg, N=2; read-out: Vss
Assay endpoint: Vd (L/kg)
Your answer should be a plain number; it is taken to be in L/kg.

Exercise: Look up Vd for this compound: CO/N=c1\[nH]cnc2c1ncn2[C@@H]1O[C@H]([C@](C)(O)c2ccc(Cl)c(Cl)c2)[C@@H](O)[C@H]1O [Example 92]
Solution: 1.13

* * *

assay: In vivo pharmacokinetic study in rat (i.v. and p.o.); conditions: blood, po; rat SD male non-fasted, cassette, p.o. 2 mg/kg, N=3
Assay endpoint: bioavailability

Exercise: Look up bioavailability for this molecule: `CO/N=c1/nc[nH]c2c1ccn2[C@@H]1O[C@H]([C@H](O)c2ccc(Cl)cc2)[C@@H](O)[C@H]1O`
Solution: > 120%

* * *

assay: In vivo pharmacokinetic study in rat (i.v. and p.o.); settings: blood, iv; rat SD male non-fasted, i.v. 1 mg/kg, N=2; read-out: T1/2 (printed T2) (converted)
Assay endpoint: half-life (min)
Your answer should be a plain number; it is taken to be in min.

Exercise: Look up half-life for this compound: CO/N=c1\[nH]cnc2c1ncn2[C@@H]1O[C@H]([C@](C)(O)c2ccc(Cl)c(Cl)c2)[C@@H](O)[C@H]1O [Example 92]
Solution: 110

* * *

tested on: Granta-519 cells; assay: Cell proliferation assay on Granta-519 cells (CCK-8, day 10); format: cell-based; conditions: Homo sapiens, Granta-519, 240 h, Granta cell line, read-out: Prolif. IC50
Assay endpoint: pIC50
Field pIC50 (float): negative decimal logarithm of the concentration in molar.

Exercise: Notebook entry, Granta-519 cells assay: pIC50 of C[C@@](O)(c1ccc(Cl)c(Cl)c1)[C@H]1O[C@@H](n2cnc3c(N)ncnc32)[C@H](O)[C@@H]1O [Example 1-C] = ?
Solution: 7.36

Exercise: Notebook entry, Granta-519 cells assay: pIC50 of CO/N=c1\nc[nH]c2c1ccn2[C@@H]1C[C@H](CCc2ccc3ccc(NCC4CC4)nc3c2)[C@@H](O)[C@H]1O [Example 90-B] = ?
Solution: 6.64

* * *

Biological target: PRMT5/MEP50 complex (Homo sapiens (Human), UniProt O14744)
Test: Biochemical assay: PRMT5/MEP50 methylation of histone H2A with 3H-SAM, filter plate scintillation
Conditions: histone H2A 5 μM, SAM 1 μM, enzyme 5 nM; read-out: PRMT5/MEP50 IC50
Procedure: Biochemical Assay Protocol Compounds were solubilized, and 3-fold diluted in 100% DMSO. […] Standard reactions were performed in a total volume of […] assay buffer, with histone H2A (5 μM final) as substrate. […] Each reaction was spotted onto filter plate (MultiScreen FB Filter Plate, Millipore), and washed 5 times with PBS buffer, Scintillation fluid was added to the filter plate and read in a scintillation counter. […]
Where a name gives a salt, the structure may show the parent alone.
Just a reminder that ties go to n: only IC50 strictly below 0.7 nM counts as y.

Exercise: Lab note: confirm whether the reported IC50 for this compound is below 0.7 nM, equality not counting. compound: CO/N=c1\nc[nH]c2c1c(F)cn2[C@@H]1OC([C@H](O)c2ccc(Cl)cc2)[C@@H](O)[C@H]1O (stereo partly drawn) [compound 74]
Solution: n

Exercise: Lab note: confirm whether the reported IC50 for this compound is below 0.7 nM, equality not counting. compound: O/N=c1/nc[nH]c2c1c(F)cn2[C@@H]1O[C@H]([C@H](O)c2ccc(Cl)cc2)[C@@H](O)[C@H]1O [compound 72]
Solution: n

Exercise: Lab note: confirm whether the reported IC50 for this compound is below 0.7 nM, equality not counting. compound: C[C@@](O)(C1C=C(Cl)C(Cl)=CC1)[C@H]1O[C@@H](n2ccc3/c(=N\O)nc[nH]c32)[C@H](O)[C@@H]1O (stereo partly drawn) [Example 105]
Solution: y

Exercise: Lab note: confirm whether the reported IC50 for this compound is below 0.7 nM, equality not counting. compound: CO/N=c1/nc[nH]c2c1ncn2[C@@H]1O[C@H]([C@H](O)c2ccc(Cl)cc2)[C@@H](O)[C@H]1O [compound 53, trifluoroacetic Acid Salt]
Solution: n

Exercise: Lab note: confirm whether the reported IC50 for this compound is below 0.7 nM, equality not counting. compound: CO/N=c1/nc[nH]c2c1ccn2[C@@H]1O[C@H]([C@H](O)c2ccc(Cl)cc2)[C@@H](O)[C@H]1O [compound 36]
Solution: n

* * *

assay: In vivo pharmacokinetic study in rat (i.v. and p.o.); conditions: blood, iv; rat SD male non-fasted, cassette, i.v. 0.25 mg/kg, N=3; read-out: T1/2 (printed T2) (converted)
Assay endpoint: half-life (h)
Your answer should be a plain number; it is taken to be in h.

Exercise: Look up half-life for this compound: CO/N=c1/nc[nH]c2c1ccn2[C@@H]1O[C@H]([C@H](O)c2ccc(Cl)cc2)[C@@H](O)[C@H]1O [compound 36]
Solution: 1.2

* * *

Consider the following molecules; for each one, report its IC50.
molecular target: PRMT5/MEP50 complex (Homo sapiens (Human), UniProt O14744); assay: Biochemical assay: PRMT5/MEP50 methylation of histone H2A with 3H-SAM, filter plate scintillation; details: histone H2A 5 μM, SAM 1 μM, enzyme 5 nM; read-out: PRMT5/MEP50 IC50
Structures can show the parent of a compound that is named as a salt.
Your answer should be a plain number; it is taken to be in µM.

Exercise: Look up IC50 for this molecule: `C#Cc1cn([C@@H]2O[C@H]([C@H](O)c3ccc(Cl)c(Cl)c3)[C@@H](O)[C@H]2O)c2[nH]cn/c(=N\OC)c12`
Solution: 0.0102

Exercise: Look up IC50 for this molecule: `C#Cc1cn([C@@H]2O[C@H]([C@H](O)c3ccc(Cl)cc3)[C@@H](O)[C@H]2O)c2[nH]cn/c(=N\OC)c12`
Solution: 0.308

Exercise: Look up IC50 for this molecule: `CO/N=c1\nc[nH]c2c1ccn2[C@@H]1O[C@H]([C@H](O)c2ccc(F)c(F)c2)[C@@H](O)[C@H]1O`
Solution: 0.0102

Exercise: Look up IC50 for this molecule: `CO/N=c1\nc[nH]c2c1ccn2[C@@H]1O[C@H]([C@H](O)c2ccc(C(F)(F)F)c(C)c2)[C@@H](O)[C@H]1O`
Solution: 0.0084

Exercise: Look up IC50 for this molecule: `CO/N=c1\nc[nH]c2c1ccn2[C@@H]1O[C@H]([C@](C)(O)c2ccc(Cl)c(Cl)c2)[C@@H](O)[C@H]1O`
Solution: 0.0026

Exercise: Look up IC50 for this molecule: `Cc1n/c(=N\O)c2ccn([C@@H]3O[C@H]([C@H](O)c4ccc(Cl)cc4)[C@@H](O)[C@H]3O)c2[nH]1`
Solution: 0.0139

Exercise: Look up IC50 for this molecule: O/N=c1/nc[nH]c2c1ncn2[C@@H]1O[C@H]([C@H](O)c2ccc(Cl)cc2)[C@@H](O)[C@H]1O [compound 54, trifluoroacetic Acid Salt]
Solution: 0.0256

Exercise: Look up IC50 for this molecule: `O/N=c1\nc[nH]c2c1ccn2[C@@H]1O[C@H]([C@H](O)c2ccc(F)c(F)c2)[C@@H](O)[C@H]1O`
Solution: 0.0006

Exercise: Look up IC50 for this molecule: CO/N=c1\nc[nH]c2c1ccn2[C@@H]1OC([C@](O)(c2ccc(Cl)cc2)C(F)(F)F)[C@@H](O)[C@H]1O (stereo partly shown)
Solution: 6.46

Exercise: Look up IC50 for this molecule: O/N=c1/nc[nH]c2c1ccn2[C@@H]1O[C@H]([C@H](O)c2ccc(Cl)cc2)[C@@H](O)[C@H]1O [compound 37, hydrochloride]
Solution: 0.0024

Exercise: Look up IC50 for this molecule: `O/N=c1\nc[nH]c2c1ccn2[C@@H]1O[C@H]([C@H](O)c2ccc(Cl)c(Cl)c2)[C@@H](O)[C@H]1O`
Solution: 0.0004

Exercise: Look up IC50 for this molecule: `CO/N=c1\nc[nH]c2c1ccn2[C@@H]1O[C@H]([C@](C)(O)c2ccc(Cl)cc2)[C@@H](O)[C@H]1O`
Solution: 0.0377

Exercise: Look up IC50 for this molecule: C[C@@](O)(c1ccc(Cl)cc1)[C@H]1O[C@@H](n2ccc3/c(=N/O)nc[nH]c32)[C@H](O)[C@@H]1O [compound 59, hydrochloride]
Solution: 0.0028

Exercise: Look up IC50 for this molecule: `CCO/N=c1/nc[nH]c2c1ccn2[C@@H]1O[C@H]([C@](C)(O)c2ccc(Cl)c(Cl)c2)[C@@H](O)[C@H]1O`
Solution: 0.0024

Exercise: Look up IC50 for this molecule: `CO/N=c1\nc[nH]c2c1c(CCO)cn2[C@@H]1O[C@H]([C@H](O)c2ccc(Cl)c(Cl)c2)[C@@H](O)[C@H]1O`
Solution: 1.77

Exercise: Look up IC50 for this molecule: `CO/N=c1\nc[nH]c2c1ccn2[C@@H]1O[C@H]([C@H](OC)c2ccc(Cl)c(F)c2)[C@@H](O)[C@H]1O`
Solution: 0.436

Exercise: Look up IC50 for this molecule: `CO/N=c1/nc[nH]c2c1ccn2[C@@H]1O[C@H]([C@H](O)c2ccc(F)c(Cl)c2)[C@@H](O)[C@H]1O`
Solution: 0.035

Exercise: Look up IC50 for this molecule: `O[C@@H]1[C@H](O)[C@@H]([C@H](O)c2ccc(Cl)c(Cl)c2)O[C@H]1n1ccc2/c(=N/OCC(F)(F)F)nc[nH]c21`
Solution: 0.0296

Exercise: Look up IC50 for this molecule: `CO/N=c1\nc[nH]c2c1ccn2[C@@H]1O[C@H]([C@H](O)c2ccc(C(F)(F)F)cc2)[C@@H](O)[C@H]1O`
Solution: 0.0954

Exercise: Look up IC50 for this molecule: CN/N=c1\nc[nH]c2c1ccn2[C@@H]1O[C@H]([C@H](O)c2ccc(Cl)cc2)[C@@H](O)[C@H]1O [compound 64, hydrochloride]
Solution: 0.0083

Exercise: Look up IC50 for this molecule: `CCO/N=c1\[nH]cnc2c1ncn2[C@@H]1O[C@H]([C@](C)(O)c2ccc(Cl)c(C)c2)[C@@H](O)[C@H]1O`
Solution: 0.699

Exercise: Look up IC50 for this molecule: `N/N=c1/nc[nH]c2c1ncn2[C@@H]1O[C@H]([C@H](O)c2ccc(Cl)cc2)[C@@H](O)[C@H]1O`
Solution: 0.18

Exercise: Look up IC50 for this molecule: CO/N=c1\nc[nH]c2c1ccn2[C@@H]1O[C@H]([C@H](O)c2ccc(Cl)c(Cl)c2)[C@@H](O)[C@H]1O [compound 69, hydrochloride]
Solution: 0.0018

Exercise: Look up IC50 for this molecule: `Cc1cn([C@@H]2O[C@H]([C@H](O)c3ccc(Cl)cc3)[C@@H](O)[C@H]2O)c2[nH]cn/c(=N\O)c12`
Solution: 0.118

Exercise: Look up IC50 for this molecule: `CO/N=c1\nc[nH]c2c1c(F)cn2[C@@H]1O[C@H]([C@](C)(O)c2ccc(Cl)c(Cl)c2)[C@@H](O)[C@H]1O`
Solution: 0.028
